Just for reference, ChEMBL document CHEMBL3632595 is where these values come from.

target_or_system: Bifunctional epoxide hydrolase 2 (Homo sapiens, UniProt P34913)
experiment_description: Reversible-uncompetitive inhibition of sEH (unknown origin) by Lineweaver-Burk plot
pKi: −log10 of the molar value.
measured_property: pKi

1) COc1cc(O[C@@H]2O[C@H](CO)[C@@H](O)[C@H](O)[C@H]2O)c2c(OC)c(C(C)=O)c(O[C@H]3OC[C@@](O)(CO)[C@@H]3O)cc2c1 : 6.22

* * *

target_or_system: Bifunctional epoxide hydrolase 2 (Homo sapiens)
Sequence (whole entry): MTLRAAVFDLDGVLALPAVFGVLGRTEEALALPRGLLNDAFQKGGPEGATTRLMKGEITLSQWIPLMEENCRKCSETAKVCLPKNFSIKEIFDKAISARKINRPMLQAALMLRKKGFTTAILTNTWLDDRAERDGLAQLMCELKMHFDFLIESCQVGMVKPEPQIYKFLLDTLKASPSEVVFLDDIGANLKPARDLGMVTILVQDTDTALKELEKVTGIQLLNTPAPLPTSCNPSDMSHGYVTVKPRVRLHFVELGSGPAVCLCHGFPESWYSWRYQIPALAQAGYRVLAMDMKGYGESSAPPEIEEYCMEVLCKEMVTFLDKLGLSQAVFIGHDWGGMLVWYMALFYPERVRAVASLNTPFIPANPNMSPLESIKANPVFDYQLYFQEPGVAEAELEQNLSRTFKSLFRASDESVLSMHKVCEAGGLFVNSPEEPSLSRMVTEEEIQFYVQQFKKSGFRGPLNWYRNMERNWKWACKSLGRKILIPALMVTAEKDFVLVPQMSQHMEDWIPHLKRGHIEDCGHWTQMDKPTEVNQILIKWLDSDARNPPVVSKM
assay_context: at 50 µM
Description: Inhibition of sEH (unknown origin) assessed as 6-methoxy-2-naphthaldehyde formation at 50 uM by fluorometry assay using 40 uM cyano-(6-methoxy-naphthalen-2-yl)-methyl ester as substrate
Entry flag: TRUE if inhibition reaches 50%; FALSE if it does not.

1) Cc1cc(O)c2c(c1)C(=O)c1cccc(O)c1C2=O : FALSE
2) COc1cc2c(c(O)c1OC)C(=O)c1c(cc(C)c(O)c1OC)C2=O : TRUE
3) Cc1cc(O)c2c(c1)C(=O)c1cc(O)cc(O)c1C2=O [EMODIN] : TRUE
4) COc1ccc2c(c1O)C(=O)c1c(cc(C)c(O)c1OC)C2=O : TRUE
5) COc1c(O)c(C)cc2c1C(=O)c1c(O)cccc1C2=O : FALSE
6) COc1cc(O)c2c(c1)C(=O)c1cc(C)cc(O)c1C2=O : FALSE
7) COc1cc(O[C@@H]2O[C@H](CO[C@@H]3O[C@H](CO)[C@@H](O)[C@H](O)[C@H]3O)[C@@H](O)[C@H](O)[C@H]2O)c2c(O)c3c(=O)oc(C)cc3cc2c1 : TRUE
8) COc1cc(O[C@@H]2O[C@H](CO)[C@@H](O)[C@H](O)[C@H]2O)c2c(O)c3c(=O)cc(C)oc3cc2c1 : FALSE
9) COc1c(O)cc2c(c1O)C(=O)c1c(cc(C)c(O)c1OC)C2=O : FALSE
10) COc1c(O[C@@H]2O[C@H](CO)[C@@H](O)[C@H](O)[C@H]2O)cc2c(c1O)C(=O)c1c(cc(C)c(O)c1OC)C2=O : TRUE
